Assay: folding stability dG unfold (combined trypsin and chymotrypsin); higher = more stable
Quick reference for folding stability dG unfold among some sequences
Your answer is read as kcal/mol, so omit the unit and give the number.

Some entries whose results are on file:
>>> df
                                biosequence  unit_label  experimental_value
0  SAMTIEEAIEKGKIGAIVKVEVELPNGGKIEIEIFIESESLEEALEKIKAFFEALNLKVKIIEVKVFPVSAG [r14_854_TrMRF]    kcal/mol                3.09
1  SAGGSAMPLEELKKVTITLSFYNENGELVAEMTLEYDEETDVFTMTVKVRYNGKTYTVEMEFKLLPSAGGSA [r15_278_TrROS_Hall]    kcal/mol                5.23
2  SAGGSAGGKYEIVEVEEKEVNGEKYLIFKVKNENGEELLITVSKEDAEKILASLPPGATVEILPSAGGSAGG [r6_111_TrROS_Hall]    kcal/mol                3.84
3  SKTVVIKIDNRVPVPKSDKYVPIKEEFFLKVINEIKKKGYKVIITGANPDNPLAKEVAKKAKELGFEVVGSA [r9_468_TrMRF]    kcal/mol               0.922
4  SAGGSAGMMATKPVEVEVEIPPDDPEAAKERVEAEIKAAFPGPVEVETTSYDPEKGLLKVKVVIKKSAGGSA [r15_1024_JUSTAS]    kcal/mol               0.256

Request: For SAGGSAAVTITSVPPDGTIRATATNPTNGETVTITFSPETSPEEAVAAIQKELGGPVPVTAVTPAGSAGGSA [r15_544_JUSTAS] , what is its reported folding stability dG unfold?
Response: 1.42

Request: For SAGGSAGGSAGGDNFEIEPDISWNPDYGYISIDWTVTIGGKEQPFTIMIPVRLPPPPEDDSAGGSAGGSAGG [r7_413_TrROS] , what is its reported folding stability dG unfold?
Response: 1.14

Request: For SAGGSAGGSAMRINIKLPGVETESVEVDPEKGMITARLKFPEGRKVEISFFPDGNVKIHPVSAGGSAGGSAG [r3_348_TrROS] , what is its reported folding stability dG unfold?
Response: 0.898

Every entry's value here was drawn from the supplement of paper PMC12764529.
